- Read-out: CD38, CD38 (gene 952)
- PROTOCOL: BSK_SAg_CD38: BioMAP Diversity Plus: SAg Assay for CD38 Biomarker Activity (AID 2283087)
- MEASUREMENT PARAMETERS: primary human HUVEC with PBMC; actives raise or lower the signal
Active and inactive are the calls of the source. Rule for the calls: active = hit-call score of the fitted dose curve at least 0.9, where 1 is the maximum; inactive = score below 0.9.
READOUT TYPE: AC50

Before answering, review these 10 worked examples.
| COMPOUND | AC50 |
| --- | --- |
| CCOc1nc(F)cc2nc(S(=O)(=O)Nc3c(Cl)cccc3Cl)nn12 | inactive |
| CC(C)Nc1nc(Cl)nc(NC(C)C)n1 | inactive |
| CC(C)Oc1cccc(NC(=O)c2ccccc2C(F)(F)F)c1 | inactive |
| O=P(O)(O)CCCl | inactive |
| COP(=S)(OC)SCn1nnc2ccccc2c1=O | inactive |
| Nc1c(Cl)c(F)nc(OCC(=O)O)c1Cl | inactive |
| CCOP(=S)(OCC)Oc1nc(Cl)n(C(C)C)n1 | inactive |
| Cc1nc(N(C)C)nc(OC(=O)N(C)C)c1C | inactive |
| CCNP(=S)(OC)O/C(C)=C/C(=O)OC(C)C (stereo not drawn) | inactive |
| Clc1nc(Cl)nc(Nc2ccccc2Cl)n1 | inactive |

Quote AC50 reported for CCCC(=NOCC)C1=C(O)CC(CC(C)SCC)CC1=O (stereo not drawn) please.
inactive

Give the value of AC50 reported for the following: C=CCOC(=O)C(C)(C)OC(=O)c1cc(-n2c(=O)cc(C(F)(F)F)n(C)c2=O)ccc1Cl
10.8 µM (active)

Give reported AC50 value for CCOP(=O)(OCC)Oc1nc(Cl)c(Cl)cc1Cl
29.6 µM (active)

Give recorded AC50. CC1(C)C(C=C(Cl)Cl)C1C(=O)OC(C#N)c1cccc(Oc2ccccc2)c1 (stereo not drawn)
inactive

Give the reported AC50 for this compound. CC(C)C1(C)N=C(c2ncccc2C(=O)O)NC1=O (stereo not drawn)
inactive

Tell me its AC50 given COCc1cnc(C2=NC(C)(C(C)C)C(=O)N2)c(C(=O)O)c1 (stereo not drawn) as the entry.
inactive

Identify AC50 associated with the compound Cc1ccc(N=CN(C)C=Nc2ccc(C)cc2C)c(C)c1
29.1 µM (active)

Indicate the recorded AC50 value for this compound: COc1ccc(-c2ccccc2)cc1NNC(=O)OC(C)C
inactive

---

- PROTOCOL: BSK_3C_TissueFactor: BioMAP Diversity Plus: 3C Assay for Tissue Factor Biomarker Activity (AID 2282997)
- MEASUREMENT PARAMETERS: BioMAP 3C HUVEC, tissue factor biomarker readout; actives raise or lower the signal
Calls of active or inactive are those of the source. Rule for the calls: active = hit-call score of the fitted dose curve at least 0.9, where 1 is the maximum; inactive = score below 0.9.
READOUT TYPE: outcome

The cases that follow already have their outcome on record.
| COMPOUND | outcome |
| --- | --- |
| CNC(=O)Oc1cccc2ccccc12 | inactive |
| CN/C(=N\[N+](=O)[O-])NCc1cnc(Cl)s1 | inactive |
| CCOC(=O)C(C)OC(=O)c1cc(Oc2ccc(C(F)(F)F)cc2Cl)ccc1[N+](=O)[O-] (stereo unspecified) | inactive |
| O=C1C2CC=CCC2C(=O)N1SC(Cl)(Cl)Cl (stereo unspecified) | inactive |
| O=c1n(Cl)c(=O)n(Cl)c(=O)n1Cl | inactive |

Next item in the queue.
Identify outcome associated with the compound CC(C)N1C(=O)c2ccccc2NS1(=O)=O
inactive

---

- TARGET: Aryl hydrocarbon receptor (Homo sapiens)
- PROTOCOL: ATG_Ahr_CIS: Attagene CIS-FACTORIAL HepG2 Assay for human Aryl Hydrocarbon Receptor (Ahr) (AID 2282930)
- MEASUREMENT PARAMETERS: HepG2 AhR cis-factorial reporter transcription; actives raise or lower the signal
Calls of active or inactive are those of the source. Rule for the calls: active = hit-call score of the fitted dose curve at least 0.9, where 1 is the maximum; inactive = score below 0.9.
Permitted responses: active, inactive

What did the test return for CC(C)N1C(=O)N(c2ccccc2)CSC1=NC(C)(C)C ?
inactive

Please let me know the test result on file for Nc1c(Cl)c(Cl)nc(C(=O)O)c1Cl .
active

Field: outcome | Entry: CC1(C)C(C(=O)OC(C#N)c2cccc(Oc3ccccc3)c2)C1(C)C (stereo not drawn)
inactive

Identify the outcome logged in this assay for the molecule shown: Clc1nc(Cl)nc(Nc2ccccc2Cl)n1
inactive

Kindly provide the recorded test outcome for the following molecule: CCOc1nc(F)cc2nc(S(=O)(=O)Nc3c(Cl)cccc3Cl)nn12
inactive

What classification did O=C(Nc1ccccc1-c1ccc(Cl)cc1)c1cccnc1Cl end up with in this test?
inactive

// param item: Nc1cnn(-c2ccccc2)c(=O)c1Cl ; yields the recorded call
active

// param item: CCCN(CC)CC1COC2(CCC(C(C)(C)C)CC2)O1 (stereo not drawn) ; yields the recorded call
active

---

- Read-out: BCL2L11 (gene 10018)
- PROTOCOL: LTEA_HepaRG_BCL2L11: Life Technologies and Expression Analysis (LTEA) Assay for Bcl-2 (BCL2L11) gene using HepaRG (AID 2283473)
- MEASUREMENT PARAMETERS: mRNA level, 48 h; actives raise or lower the signal
Active and inactive are the calls of the source. The calls were made as follows: active = hit-call score of the fitted dose curve at least 0.9, where 1 is the maximum; inactive = score below 0.9.
Give one outcome, nothing more. List: YES = active, NO = inactive

Given COP(=O)(OC)O/C(C)=C/C(=O)N(C)C , state the outcome it received in this test.
NO

Per the records of this test, what outcome belongs to CCOc1cc(C(C)(C)C)ccc1C1COC(c2c(F)cccc2F)=N1 (stereo not given) ?
NO

Test call, this compound: COCC(C)N(C(=O)CCl)c1c(C)csc1C (stereo not given)
NO

# outcome recorded in this test, key = CC1(C)C(C(=O)OC(C#N)c2cccc(Oc3ccccc3)c2)C1(C)C (stereo not given)
NO

In this assay, the call recorded for CC(C)NC(=O)N1CC(=O)N(c2cc(Cl)cc(Cl)c2)C1=O was what?
NO

Record request — test call for CNC(=O)N(C)c1nnc(C(C)(C)C)s1
NO

Dear all, I need the recorded test outcome for O=c1n(Cl)c(=O)n(Cl)c(=O)n1Cl , thank you.
NO

Answer briefly: the call reported for Nc1cnn(-c2ccccc2)c(=O)c1Cl in this assay.
NO

Can you look up the reported call for COc1ccc(-c2ccccc2)cc1NNC(=O)OC(C)C for me?
NO

Recorded test outcome, item CO/N=C(/C1=NOCCO1)c1ccccc1Oc1ncnc(Oc2ccccc2Cl)c1F
YES

Hi, do you know how CC1(C)CON(Cc2ccccc2Cl)C1=O came out in this test?
NO

Look up the recorded call for Cn1c(-c2ccccc2)cc(-c2ccccc2)[n+]1C in this test.
NO

Outcome logged for CC1(C)C(C=C(Cl)Cl)C1C(=O)OC(C#N)c1cccc(Oc2ccccc2)c1 (stereo not given) in this assay:
NO

Recorded test call requested for CCNP(=S)(OC)O/C(C)=C/C(=O)OC(C)C (stereo not given)
NO

Can you look up the reported call for CS(=O)(=O)c1cc(C(F)(F)F)ccc1C(=O)c1cnoc1C1CC1 for me?
NO

---

- PROTOCOL: APR_HepG2_MitoticArrest_72hr: Apredica 72-hour HepG2 Assay for Mitotic Arrest (AID 2282918)
- MEASUREMENT PARAMETERS: high-content imaging, actives raise or lower the signal
Active and inactive are the calls of the source. The calls were made as follows: active = hit-call score of the fitted dose curve at least 0.9, where 1 is the maximum; inactive = score below 0.9.
Classes to choose from: active, inactive

Per the records of this test, what outcome belongs to CC(C)Nc1nc(Cl)nc(NC(C)C)n1 ?
inactive

GET /call?item= CC(C)(C)C(=O)C(Oc1ccc(Cl)cc1)n1cncn1 (centres undefined) returns the recorded outcome of this test.
inactive

So what was the verdict on COC(=O)NS(=O)(=O)c1ccc(N)cc1 in this test?
inactive

Assay outcome for CC(C)N1C(=O)N(c2ccccc2)CSC1=NC(C)(C)C : what was it?
inactive

Test call, this molecule: CCCCC(C#N)(Cn1cncn1)c1ccc(Cl)cc1 (centres undefined)
inactive

For CN=C=S , which call appears in the assay record?
inactive

What did this assay record as the result for CN/C(=N\[N+](=O)[O-])NCc1cnc(Cl)s1 ?
inactive

Test call for this molecule, please: N#Cc1c(Cl)cccc1Cl
inactive

Short answer needed: outcome of this test for COCc1cnc(C2=NC(C)(C(C)C)C(=O)N2)c(C(=O)O)c1 (centres undefined) ?
inactive

Would you mind telling me which call this test gave CCCN(CC)CC1COC2(CCC(C(C)(C)C)CC2)O1 (centres undefined) ?
active

Look up the recorded call for Cn1c(-c2ccccc2)cc(-c2ccccc2)[n+]1C in this test.
inactive

For this molecule, state the assay outcome: Cc1ccc(N=CN(C)C=Nc2ccc(C)cc2C)c(C)c1
active

Write down the call the test reported for this molecule. Item: CC1(C)C(C=C(Cl)Cl)C1C(=O)OC(C#N)c1cccc(Oc2ccccc2)c1 (centres undefined)
inactive

Hi, do you know how Nc1c(Cl)c(Cl)nc(C(=O)O)c1Cl came out in this test?
inactive

Assay outcome for CS(=O)(=O)c1cc(C(F)(F)F)ccc1C(=O)c1cnoc1C1CC1 : what was it?
inactive

Hey, what did the test say about O=C(Nc1ccccc1-c1ccc(Cl)cc1)c1cccnc1Cl ?
inactive

Hey, what did the test say about OC(c1ccc(Cl)cc1)(c1ccc(Cl)cc1)C(Cl)(Cl)Cl ?
inactive

Dear all, I need the recorded test outcome for N#Cc1c[nH]cc1-c1cccc2c1OC(F)(F)O2 , thank you.
inactive

How was C=C(C)CN(CC)c1c([N+](=O)[O-])cc(C(F)(F)F)cc1[N+](=O)[O-] classified in this test?
inactive

Data origin: PubChem BioAssay (EPA / NIEHS)
